In this section we review reported inhibition values for a set of compounds.
Target: Protein kinase C gamma type (Homo sapiens) (UniProt P05129);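 also: each value is an averaged percent inhibition of the enzyme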
Settings: at 1 µM

Chemical Smiles: COc1cc(Nc2nccc(Nc3ccc4c(C)n[nH]c4c3)n2)cc(OC)c1OC
inhibition (%): 5.39
//
Chemical Smiles: COc1cccc(-c2c[nH]c3c(N/N=C/c4ccncc4)ncnc23)c1
inhibition (%): 7.65
//
Chemical Smiles: Nc1nc(-c2cccc(Cl)c2)c(-c2ccc3ncccc3n2)s1
inhibition (%): 6.65
//
Chemical Smiles: NS(=O)(=O)c1ccc(N/N=C2\C(=O)Nc3ccc4ncccc4c32)cc1
inhibition (%): 11.8
//
Chemical Smiles: CCn1cc(-c2ccnc3[nH]ccc23)c(-c2cccc(NC(=O)Nc3ccc(OCc4ccccc4)cc3)c2)n1
inhibition (%): 2.68
//
Chemical Smiles: CCN1CCC(CC(=O)Nc2n[nH]c3nnc(-c4cccc(F)c4F)cc23)CC1
inhibition (%): 1.09
//
Chemical Smiles: NC(=O)c1sc(-n2cnc3ccc(C(F)(F)F)cc32)cc1OCc1ccccc1Br
inhibition (%): 3.75
//
Chemical Smiles: CNC(=O)c1cccc(C#Cc2cncnc2Nc2ccc(OCc3cccc(F)c3)c(Cl)c2)c1
inhibition (%): -1.09
//
Chemical Smiles: Fc1ccc(-c2nn3ccccc3c2-c2ccncc2)cc1
inhibition (%): 2.4
//
Chemical Smiles: COC(=O)Nc1nc2ccc(Oc3ccc(NC(=O)Nc4cccc(Cl)c4)cc3)cc2[nH]1
inhibition (%): -1.47

* * *

Tested on: Proto-oncogene tyrosine-protein kinase receptor Ret (Homo sapiens), P07949 [Y791F]
Sequence (P07949 whole entry Y791F): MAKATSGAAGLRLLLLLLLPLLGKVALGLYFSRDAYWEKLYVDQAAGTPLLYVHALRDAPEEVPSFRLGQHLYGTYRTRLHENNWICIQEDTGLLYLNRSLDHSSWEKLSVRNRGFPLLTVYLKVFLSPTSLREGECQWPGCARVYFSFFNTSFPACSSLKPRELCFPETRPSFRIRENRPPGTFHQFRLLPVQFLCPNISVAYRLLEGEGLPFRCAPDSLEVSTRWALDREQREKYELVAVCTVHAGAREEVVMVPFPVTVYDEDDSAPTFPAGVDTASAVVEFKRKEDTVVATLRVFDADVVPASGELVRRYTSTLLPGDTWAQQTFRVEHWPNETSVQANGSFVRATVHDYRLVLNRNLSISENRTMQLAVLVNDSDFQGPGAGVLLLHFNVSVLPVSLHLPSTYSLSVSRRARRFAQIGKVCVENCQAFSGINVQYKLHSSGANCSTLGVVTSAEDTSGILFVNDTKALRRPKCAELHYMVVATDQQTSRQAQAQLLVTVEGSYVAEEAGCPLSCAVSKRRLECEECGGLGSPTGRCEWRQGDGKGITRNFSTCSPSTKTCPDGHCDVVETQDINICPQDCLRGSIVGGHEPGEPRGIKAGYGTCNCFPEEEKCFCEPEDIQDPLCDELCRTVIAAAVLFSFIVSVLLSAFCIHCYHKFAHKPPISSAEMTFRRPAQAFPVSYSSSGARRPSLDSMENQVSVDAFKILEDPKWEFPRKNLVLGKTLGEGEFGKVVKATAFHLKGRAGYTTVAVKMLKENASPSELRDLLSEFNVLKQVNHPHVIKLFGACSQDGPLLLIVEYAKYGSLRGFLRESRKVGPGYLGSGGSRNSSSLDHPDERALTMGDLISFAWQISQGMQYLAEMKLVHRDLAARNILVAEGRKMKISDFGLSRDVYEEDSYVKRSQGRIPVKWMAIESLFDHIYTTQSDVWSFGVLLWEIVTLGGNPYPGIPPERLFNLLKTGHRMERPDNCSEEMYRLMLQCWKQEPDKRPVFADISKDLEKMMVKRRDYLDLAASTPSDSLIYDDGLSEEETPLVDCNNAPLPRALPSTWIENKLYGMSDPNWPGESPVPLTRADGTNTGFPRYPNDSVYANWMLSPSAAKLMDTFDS
Conditions: at 0.1 µM
Readout Kind: inhibition (%)

Chemical Smiles: c1cc(-c2cnn3nc(N4CCOCC4)ccc23)nc(NC2CC2)n1
Data Value: 6.04
//
Chemical Smiles: COc1cc(Nc2nccc(Nc3ccc4c(C)n[nH]c4c3)n2)cc(OC)c1OC
Data Value: 57.5
//
Chemical Smiles: COC(=O)c1sc(-n2cnc3cc(OC)c(OC)cc32)cc1OCc1ccccc1C(F)(F)F
Data Value: 25.1
//
Chemical Smiles: c1ccc(-c2nc3n(c2-c2ccc4c(c2)OCO4)CCC3)nc1
Data Value: 2.63
//
Chemical Smiles: N#Cc1c(NC(=O)CN2CCOCC2)sc2c1CCCC2
Data Value: 5.41
//
Chemical Smiles: c1ccc(COc2ccc(Nc3ncnc4ccc(-c5ccco5)cc34)cc2)cc1
Data Value: 1.88
//
Chemical Smiles: CNC(=O)c1cc(-c2ccc(F)cc2)cc(-c2ccc(S(=O)(=O)N3CCCC3)cc2)c1N
Data Value: 3.21
//
Chemical Smiles: CCn1cc(-c2ccnc3[nH]ccc23)c(-c2cccc(NC(=O)Nc3ccc(OCc4ccccc4)cc3)c2)n1
Data Value: 2.29
//
Chemical Smiles: CCn1c(-c2nonc2N)nc2cnc(Oc3cccc(NC(=O)c4ccc(N(C)C)cc4)c3)cc21
Data Value: 3.78
//
Chemical Smiles: COC(=O)Nc1nc2ccc(Oc3ccc(NC(=O)Nc4cccc(Cl)c4)cc3)cc2[nH]1
Data Value: 45.5

* * *

Molecular target: Misshapen-like kinase 1 (Homo sapiens) (UniProt Q8N4C8);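 also: mean inhibition value reported, from GSK PKIS kinase profiling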
Sequence (Q8N4C8 whole entry, looked up): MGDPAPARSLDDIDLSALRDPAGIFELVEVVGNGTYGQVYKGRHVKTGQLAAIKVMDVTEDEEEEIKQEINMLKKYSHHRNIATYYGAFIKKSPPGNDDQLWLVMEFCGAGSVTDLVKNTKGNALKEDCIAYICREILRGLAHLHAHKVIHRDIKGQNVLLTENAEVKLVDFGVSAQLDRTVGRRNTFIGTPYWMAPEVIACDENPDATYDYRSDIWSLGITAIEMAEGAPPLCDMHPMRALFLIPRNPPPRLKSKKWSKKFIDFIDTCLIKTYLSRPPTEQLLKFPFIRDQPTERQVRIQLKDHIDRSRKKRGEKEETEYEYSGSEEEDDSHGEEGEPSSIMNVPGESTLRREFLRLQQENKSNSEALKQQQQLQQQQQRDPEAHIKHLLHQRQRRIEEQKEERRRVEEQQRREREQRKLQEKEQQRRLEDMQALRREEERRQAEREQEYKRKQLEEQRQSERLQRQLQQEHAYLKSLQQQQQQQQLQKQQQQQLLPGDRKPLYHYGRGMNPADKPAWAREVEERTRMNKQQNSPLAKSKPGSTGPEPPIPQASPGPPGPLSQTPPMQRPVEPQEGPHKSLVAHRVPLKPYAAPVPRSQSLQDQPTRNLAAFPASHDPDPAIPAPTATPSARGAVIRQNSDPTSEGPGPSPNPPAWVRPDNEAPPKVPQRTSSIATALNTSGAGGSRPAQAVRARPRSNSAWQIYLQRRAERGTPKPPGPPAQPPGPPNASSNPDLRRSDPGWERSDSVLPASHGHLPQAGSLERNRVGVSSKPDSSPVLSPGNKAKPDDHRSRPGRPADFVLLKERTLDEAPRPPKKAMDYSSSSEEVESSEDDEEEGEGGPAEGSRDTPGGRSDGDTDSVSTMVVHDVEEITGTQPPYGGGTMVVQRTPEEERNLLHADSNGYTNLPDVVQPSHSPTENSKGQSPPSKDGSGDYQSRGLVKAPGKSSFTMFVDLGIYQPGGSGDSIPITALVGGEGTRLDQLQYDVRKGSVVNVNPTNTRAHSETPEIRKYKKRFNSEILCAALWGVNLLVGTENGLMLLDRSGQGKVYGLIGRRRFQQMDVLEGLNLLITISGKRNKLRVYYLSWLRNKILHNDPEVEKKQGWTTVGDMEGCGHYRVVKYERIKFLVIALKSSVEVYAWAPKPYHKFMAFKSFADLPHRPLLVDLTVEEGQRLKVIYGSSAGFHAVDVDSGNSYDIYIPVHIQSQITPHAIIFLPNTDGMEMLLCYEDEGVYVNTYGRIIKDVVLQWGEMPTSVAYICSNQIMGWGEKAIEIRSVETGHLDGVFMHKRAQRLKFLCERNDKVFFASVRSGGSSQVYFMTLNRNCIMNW
Settings: at 0.1 µM

Compound: c1ccc(COc2ccc(Nc3ncnc4ccc(-c5ccco5)cc34)cc2)cc1
inhibition / %: 4.04
//
Compound: CN(C)CCOc1ccc(-c2nc(-c3ccncc3)c(-c3ccc4c(c3)CC/C4=N\O)[nH]2)cc1
inhibition / %: 8.74
//
Compound: COc1cc(Nc2nccc(Nc3ccc4c(C)n[nH]c4c3)n2)cc(OC)c1OC
inhibition / %: 2.58
//
Compound: COc1cccc(-c2c[nH]c3c(N/N=C/c4ccncc4)ncnc23)c1
inhibition / %: 17.5
//
Compound: c1cc(-c2cnn3nc(N4CCOCC4)ccc23)nc(NC2CC2)n1
inhibition / %: 4.94
//
Compound: CCn1c(-c2nonc2N)nc2ccccc21
inhibition / %: 5.52
//
Compound: CNC(=O)c1cncc(/C=C/c2ccccc2Cl)c1
inhibition / %: 2.28
//
Compound: COc1ccc(-c2oc3ncnc(N)c3c2-c2ccc(NC(=O)Nc3cc(C(F)(F)F)ccc3F)cc2)cc1
inhibition / %: 6.56
//
Compound: O=C(Nc1n[nH]c2cc(-c3ccc(F)cc3)ccc12)C1CC1
inhibition / %: 16.2
//
Compound: NC(=O)c1sc(-n2cnc3ccc(C(F)(F)F)cc32)cc1OCc1ccccc1Br
inhibition / %: 4.02
//
Compound: N#Cc1c(NC(=O)CN2CCOCC2)sc2c1CCCC2
inhibition / %: 6.83
//
Compound: Cc1ccc2c(-c3ccnc(Nc4ccccc4)n3)c(-c3ccc(F)cc3)nn2n1
inhibition / %: 9.04
//
Compound: [O-][S+]1CCN(Cc2ccc(-c3ccc4ncnc(Nc5ccc(OCc6cccc(F)c6)c(Cl)c5)c4c3)o2)CC1
inhibition / %: 7.98
//
Compound: CN1CCC(n2cnc(-c3ccc(F)cc3)c2-c2ccnc(Nc3ccccc3)n2)CC1
inhibition / %: 8.59
//
Compound: CC1=C(C(=O)Nc2cc(Cl)c3[nH]ncc3c2)C(c2ccc(C(F)(F)F)cc2)CC(=O)N1 (configuration not stated)
inhibition / %: 4.68
//
Compound: NS(=O)(=O)c1ccc(N/N=C2\C(=O)Nc3ccc4ncccc4c32)cc1
inhibition / %: 34.1
//
Compound: Nc1nc(-c2ccc(F)cc2)c(-c2ccc3ncccc3n2)s1
inhibition / %: 13.2
//
Compound: Clc1ccc(-c2nn3ncccc3c2-c2ccnc(Nc3ccccc3)n2)cc1
inhibition / %: 5.91
//
Compound: COc1cc(N2CCN(C(C)C)CC2)ccc1Nc1nc(Nc2ccc(F)cc2C(N)=O)c2cc[nH]c2n1
inhibition / %: 14.2
//
Compound: COc1ccc(-c2cc3c(N)ncnc3o2)cc1
inhibition / %: 1.42
//
Compound: COc1cc(/C=N/Nc2ncnc3[nH]ncc23)ccc1O
inhibition / %: 6.75
//
Compound: Fc1ccc(-c2nn3ncccc3c2-c2ccnc(Nc3ccc4c(c3)OCCO4)n2)cc1
inhibition / %: 16.4

* * *

Target: Tyrosine-protein kinase CSK (Homo sapiens) (UniProt P41240)
Sequence (P41240 2-450 limits assumed): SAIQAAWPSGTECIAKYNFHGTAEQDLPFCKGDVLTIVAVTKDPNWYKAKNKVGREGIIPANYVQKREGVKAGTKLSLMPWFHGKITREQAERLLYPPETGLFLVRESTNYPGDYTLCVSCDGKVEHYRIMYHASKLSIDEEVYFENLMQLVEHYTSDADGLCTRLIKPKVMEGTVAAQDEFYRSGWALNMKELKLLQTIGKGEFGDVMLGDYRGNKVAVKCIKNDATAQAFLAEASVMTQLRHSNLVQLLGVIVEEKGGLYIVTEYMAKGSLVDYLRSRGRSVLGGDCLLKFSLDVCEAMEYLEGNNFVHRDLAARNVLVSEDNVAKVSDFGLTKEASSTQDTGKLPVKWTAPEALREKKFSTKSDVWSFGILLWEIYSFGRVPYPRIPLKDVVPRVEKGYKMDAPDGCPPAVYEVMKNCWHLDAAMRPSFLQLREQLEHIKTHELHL
Settings: at 1 µM
Measured inhibition, listed per entry for reference.
Readout Kind: inhibition (%)

Chemical Smiles: Nc1nc(-c2cccc(Cl)c2)c(-c2ccc3ncccc3n2)s1
Measured Target: Tyrosine-protein kinase CSK (Homo sapiens) (UniProt P41240)
Data Value: 6.75

Chemical Smiles: O=S(=O)(CCNCc1ccc(-c2ccc3ncnc(Nc4ccc(OCc5cccc(F)c5)c(Cl)c4)c3c2)o1)c1ccccc1
Measured Target: Tyrosine-protein kinase CSK (Homo sapiens) (UniProt P41240)
Data Value: 6.6

Chemical Smiles: N#Cc1c(NC(=O)CN2CCOCC2)sc2c1CCCC2
Measured Target: Tyrosine-protein kinase CSK (Homo sapiens) (UniProt P41240)
Data Value: 3.68

Chemical Smiles: Cc1cccc2c1NC(=O)/C2=N\Nc1ccc(S(N)(=O)=O)cc1
Measured Target: Tyrosine-protein kinase CSK (Homo sapiens) (UniProt P41240)
Data Value: 4.79

Chemical Smiles: N#Cc1c(NC(=O)c2ccc(F)cc2)sc2c1CCCC2
Measured Target: Tyrosine-protein kinase CSK (Homo sapiens) (UniProt P41240)
Data Value: 0.65

Chemical Smiles: CNC(=O)c1cc(-c2ccc(F)cc2)cc(-c2ccc(S(=O)(=O)N3CCCC3)cc2)c1N
Measured Target: Tyrosine-protein kinase CSK (Homo sapiens) (UniProt P41240);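 also: each value is an averaged inhibition reading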
Data Value: 2.28

* * *

Target: Receptor-type tyrosine-protein kinase FLT3 (Homo sapiens) (UniProt P36888)
Sequence (P36888 whole entry): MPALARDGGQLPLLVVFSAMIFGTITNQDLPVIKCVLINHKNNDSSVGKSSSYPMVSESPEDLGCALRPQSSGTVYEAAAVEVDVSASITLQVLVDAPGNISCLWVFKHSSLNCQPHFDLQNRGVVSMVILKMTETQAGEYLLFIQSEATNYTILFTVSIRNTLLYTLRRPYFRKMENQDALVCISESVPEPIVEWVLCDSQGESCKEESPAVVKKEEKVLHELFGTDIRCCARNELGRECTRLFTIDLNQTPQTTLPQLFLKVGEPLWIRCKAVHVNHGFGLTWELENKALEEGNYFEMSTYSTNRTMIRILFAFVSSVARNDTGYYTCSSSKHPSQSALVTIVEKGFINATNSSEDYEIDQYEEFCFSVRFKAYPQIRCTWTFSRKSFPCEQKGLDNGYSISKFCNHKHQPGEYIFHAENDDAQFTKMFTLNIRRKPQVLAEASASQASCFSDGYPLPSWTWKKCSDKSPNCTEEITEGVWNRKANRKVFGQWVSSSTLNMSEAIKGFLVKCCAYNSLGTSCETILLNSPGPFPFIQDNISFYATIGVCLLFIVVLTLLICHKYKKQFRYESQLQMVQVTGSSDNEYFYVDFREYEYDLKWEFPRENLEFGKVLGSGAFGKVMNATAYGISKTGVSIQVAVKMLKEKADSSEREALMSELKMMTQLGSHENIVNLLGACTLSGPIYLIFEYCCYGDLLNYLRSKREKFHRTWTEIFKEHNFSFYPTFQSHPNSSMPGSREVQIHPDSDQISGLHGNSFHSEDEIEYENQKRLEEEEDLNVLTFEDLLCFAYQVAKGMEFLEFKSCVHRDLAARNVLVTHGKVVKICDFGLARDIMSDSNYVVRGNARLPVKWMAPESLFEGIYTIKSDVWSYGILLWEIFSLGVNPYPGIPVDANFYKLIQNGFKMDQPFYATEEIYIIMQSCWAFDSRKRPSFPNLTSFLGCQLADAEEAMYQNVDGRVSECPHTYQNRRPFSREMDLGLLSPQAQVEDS
Details: at 1 µM
Here, each record is paired with measured inhibition data.

Chemical Smiles: CNC(=O)c1cccc(C#Cc2cncnc2Nc2ccc(OCc3cccc(F)c3)c(Cl)c2)c1
Measured Target: Receptor-type tyrosine-protein kinase FLT3 (Homo sapiens) (UniProt P36888)
inhibition, %: 3.22
--
Chemical Smiles: COC(=O)Nc1nc2ccc(S(=O)(=O)c3ccc(NC(=O)Nc4cc(C(F)(F)F)ccc4F)cc3)cc2[nH]1
Measured Target: Receptor-type tyrosine-protein kinase FLT3 (Homo sapiens) (UniProt P36888)
inhibition, %: 3.96
--
Chemical Smiles: c1ccc(-c2nc3n(c2-c2ccc4c(c2)OCO4)CCC3)nc1
Measured Target: Receptor-type tyrosine-protein kinase FLT3 (Homo sapiens) (UniProt P36888)
inhibition, %: 0.36
--
Chemical Smiles: Fc1ccc(-c2cc(-c3c[nH]nc3-c3ccccn3)ccn2)cc1
Measured Target: Receptor-type tyrosine-protein kinase FLT3 (Homo sapiens) (UniProt P36888)
inhibition, %: 2.5
--
Chemical Smiles: COc1cc2ncn(-c3cc(OCc4ccccc4C(F)(F)F)c(C(=O)N(C)C)s3)c2cc1OC
Measured Target: Receptor-type tyrosine-protein kinase FLT3 (Homo sapiens) (UniProt P36888)
inhibition, %: 0.81
--
Chemical Smiles: CC(=O)Nc1cccc(C#Cc2cncnc2Nc2ccc(OCc3cccc(F)c3)c(Cl)c2)c1
Measured Target: Receptor-type tyrosine-protein kinase FLT3 (Homo sapiens) (UniProt P36888)
inhibition, %: 2.38
--
Chemical Smiles: COc1cccc(-c2c[nH]c3c(N/N=C/c4ccncc4)ncnc23)c1
Measured Target: Receptor-type tyrosine-protein kinase FLT3 (Homo sapiens) (UniProt P36888)
inhibition, %: 39
--
Chemical Smiles: Fc1ccc(-c2nn3ccccc3c2-c2ccncc2)cc1
Measured Target: Receptor-type tyrosine-protein kinase FLT3 (Homo sapiens) (UniProt P36888)
inhibition, %: 2.86
--
Chemical Smiles: CCn1cc(-c2ccnc3[nH]ccc23)c(-c2cccc(NC(=O)Nc3ccc(OCc4ccccc4)cc3)c2)n1
Measured Target: Receptor-type tyrosine-protein kinase FLT3 (Homo sapiens) (UniProt P36888)
inhibition, %: -2.19
--
Chemical Smiles: CCCN1CCC(c2ccc(Nc3nc(Nc4cc(F)ccc4C(N)=O)c4cc[nH]c4n3)c(OC)c2)CC1
Measured Target: Receptor-type tyrosine-protein kinase FLT3 (Homo sapiens) (UniProt P36888);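 also: values are mean percent inhibition of FLT3 kinase activity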
inhibition, %: 20.3
